Ref: PubChem BioAssay (NCI)

tested on: UACC-257 melanoma; assay: NCI tumour cell line growth inhibition, 48 h
quantity: TGI

> print(dat)
                                   molecule  quantity  observed
1                      CCN=C(N)CSS(=O)(=O)O       TGI  > 100 µM
2  CC(C)Cn1cnnc1NS(=O)(=O)c1cc(C(=O)NN)c(Cl)cc1S       TGI   > 10 µM
3           C/C(=N\NC(=S)Nc1ccccc1)c1ccccn1       TGI  0.384 µM
4    CCOC(=O)c1c(-c2ccccc2)[nH]c2ccccc2c1=O       TGI  > 100 µM
5  Cc1ccc(NC(=O)c2cc(S(=O)(=O)N3CCNNC3=O)c(S)cc2Cl)cc1       TGI  > 100 µM
6  COc1ccc(/C=N/Nc2nc3ccccc3c(=O)n2-c2ccccc2)cc1       TGI  > 100 µM
7  CC1(C)OCC(C2OC(On3nnc4ccc(Cl)cc43)C3OC(C)(C)OC23)O1 (configuration not stated)       TGI  > 100 µM
